assay: Plasma concentration in Wistar rat at 0.5 mg/kg, po after 75 mins; format: ADME, organism-based
MEASURE_NAME: concentration at 1.25 h (nM)

1) N#Cc1cccc(S(=O)(=O)c2cnc3cc(F)ccc3c2-c2ccc(Cl)cc2)c1 = 34.8

----------
tested on: Liver; assay: Intrinsic clearance in human liver microsomes at 2.5 uM assessed per gram of liver; assay type: ADME, microsome
MEASURE_NAME: CLint

1) COc1ccc(S(=O)(=O)c2cnc3cc(F)ccc3c2-c2cccc(F)c2)cc1 = 2.94 mL/min/g
2) COc1ccc(S(=O)(=O)c2cnc3cc(F)ccc3c2-c2ccc(F)cc2)cc1Cl = 1.29 mL/min/g
3) O=S(=O)(c1cccc(F)c1)c1cnc2cc(F)ccc2c1-c1ccc(Cl)cc1 = 0.98 mL/min/g
4) O=S(=O)(c1ccc(F)c(Cl)c1)c1cnc2cc(F)ccc2c1-c1ccccc1F = 1.07 mL/min/g
5) O=S(=O)(c1ccc(F)c(F)c1)c1cnc2cc(F)ccc2c1-c1ccccc1F = 0.79 mL/min/g

----------
assay: Terminal elimination half life in male Crl:CD(SD) rat at 0.5 mg/kg, iv; format: ADME, organism-based; conditions: in vivo, read-out: beta t1/2 (converted)
MEASURE_NAME: half-life (h)

1. N#Cc1cccc(S(=O)(=O)c2cnc3cc(F)ccc3c2-c2ccc(Cl)cc2)c1 = 5.13

----------
test system: Liver; experiment: Intrinsic clearance in human liver microsomes at 2.5 uM assessed per gram of liver; assay type: ADME, microsome
MEASURE_NAME: log10 CLint (log10 of the value in mL/min/g)

1) O=S(=O)(c1ccc(F)c(F)c1)c1cnc2cc(F)ccc2c1-c1ccc(F)cc1 = -0.36
2) Cc1ccc(S(=O)(=O)c2cnc3cc(F)ccc3c2-c2ccc(F)cc2)cc1C = 0.97
3) COc1ccc(-c2c(S(=O)(=O)c3cc(Cl)cc(Cl)c3)cnc3cc(F)ccc23)cc1 = 0.00
4) COc1ccc(-c2c(S(=O)(=O)c3ccc(F)c(F)c3)cnc3cc(F)ccc23)cc1 = 0.04
5) O=S(=O)(c1cc(Cl)cc(Cl)c1)c1cnc2c(F)cccc2c1-c1ccccc1F = -0.36
6) O=S(=O)(c1ccc(F)c(Cl)c1)c1cnc2c(F)cccc2c1-c1ccc(Cl)cc1 = -2.00
7) O=S(=O)(c1cccc(F)c1)c1cnc2cc(F)ccc2c1-c1cccc(F)c1 = -0.62
8) N#Cc1cccc(S(=O)(=O)c2cnc3c(F)cccc3c2-c2cccc(Cl)c2)c1 = 0.05
9) O=S(=O)(c1cccc(F)c1)c1cnc2c(F)cccc2c1-c1ccc(Cl)cc1 = -0.21

----------
experiment: AUC(0 to 8 hrs) in fasted male cynomolgus monkey at 9 mg/kg, po administered as single dose; format: ADME, organism-based, Macaca fascicularis; set-up: dose 9 mg/kg, time < 6 hr, route oral; details: in vivo
MEASURE_NAME: AUC(0-t) at 6 h (µM·h)

1. N#Cc1cccc(S(=O)(=O)c2cnc3cc(F)ccc3c2-c2ccc(Cl)cc2)c1 = 0.132

----------
test: Volume of distribution in female beagle dog at 0.5 mg/kg, iv administered as infusion; type: ADME, organism-based, Canis lupus familiaris; conditions: in vivo
MEASURE_NAME: Vd

1. N#Cc1cccc(S(=O)(=O)c2cnc3cc(F)ccc3c2-c2ccc(Cl)cc2)c1 = 9.2 L/kg

Origin of values: ChEMBL document CHEMBL4007421
